Assay: S. cerevisiae RM11-1a growth modifiers, primary screen, strain RM11-1a, OD600, basal, 24 h (AID 1177);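 also: cultures grown under basal conditions with no added stressor; test concentration not given here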
Conditions: OD600, 24 h, higher = more signal, called active from +8 up or from −8 down
So I've got a bunch of compounds here, and I need their z-score values.
Please give only the number in your answer, with no unit.

Give the measured z-score of `CCCC[C@@H]1C[C@H]1[C@@H](NC(=O)c1ccccc1)c1ccc(Cl)cc1` .
-0.359

And the next one, NC(=O)N1C(=O)C2C(C1=O)C1C=C(c3ccc(CO)cc3)C2C(C2CC2)N1Cc1sc2ccccc2c1Cl (configuration not stated) ?
-0.484

And the next one, COC(=O)C1(Cc2ccccc2)C=C2C(=C(c3ccccc3)C(=O)C2C)CN1 (configuration not stated) ?
0.109

And the next one, `COCCOC(=O)N1C(=O)[C@@]2(c3cc(C#CCNC(N)=O)ccc31)[C@H](C(=O)N1CCCCCCC1)[C@H]1C(=O)O[C@H](c3ccccc3)[C@H](c3ccccc3)N1[C@@H]2c1ccc(O)cc1` ?
0.786

And the next one, C[C@@H](OCc1ccccc1)C1NC(=O)[C@@]23C(=O)N[C@@H](Cc4ccccc4)C2[C@H](C)[C@@]2(C)O[C@H]2C3/C=C/C/C=C\CNC(=O)CNC1=O (some centres not stated) ?
-0.509

And the next one, `NC(=O)NCC#Cc1ccc2c(c1)[C@]1(C(=O)N2)[C@H](c2ccc(O)cc2)N2[C@H](c3ccccc3)[C@H](c3ccccc3)OC(=O)[C@H]2[C@@H]1C(=O)Nc1nc2ccccc2s1` ?
5.85

And the next one, `C=CCOC(=O)[C@H]1[C@@H]2C(=O)O[C@@H](c3ccccc3)[C@@H](c3ccccc3)N2[C@@H](c2ccc(OCCOC(=O)[C@H]3C[C@H]4C(=O)N[C@@H](CCCC[N+](C)(C)C)C(=O)N4[C@H]3c3cccc(OCCO)c3)cc2)[C@]12C(=O)Nc1ccc(I)cc12` ?
2.44

And the next one, `COCCOC(=O)N1C(=O)[C@@]2(c3cc(C#CC4(O)CCCCCC4)ccc31)[C@H](C(N)=O)[C@H]1C(=O)O[C@H](c3ccccc3)[C@H](c3ccccc3)N1[C@@H]2c1ccc(O)cc1` ?
0.389

And the next one, `C=CCN1C(=O)[C@@]2(CCC(=O)OC(C)(C)C)N=C(c3ccc(OCCCO)cc3)O[C@H]2c2ccccc21` ?
-0.169

And the next one, `COc1ccc(NC(=O)O[C@H]2[C@H](OC(=O)Nc3ccc4c(c3)OCO4)[C@@H](OC(=O)Nc3ccc4c(c3)OCO4)[C@@H](OC)O[C@@H]2CO)cc1` ?
1.56

And the next one, `O=C1O[C@@H](c2ccccc2)[C@@H](c2ccccc2)N2[C@@H](c3ccccc3OCCO)[C@]3(C(=O)Nc4ccc(C#CC5=CCCCC5)cc43)[C@@H](C(=O)NC[C@H](O)c3ccccc3)[C@H]12` ?
0.979

And the next one, `COCCCNC(=O)[C@]1(CCC(=O)OC(C)(C)C)N=C(c2ccc(OCCCO)cc2)O[C@@H]1c1ccccc1` ?
0.0279

* * *

So I've got a bunch of compounds here, and I need their composite z-score values.
Molecular target: Carbonic anhydrase 2 (Homo sapiens) (UniProt P00918)
Assay: CAII small-molecule binders, profiling panel, biochemical, small-molecule microarray, Alexa647-labelled CAII (AID 1122)
Conditions: CAII-A647 binding fluorescence, higher = more signal
Please give only the number in your answer, with no unit.

Give the measured composite z-score of `C[C@]1(C(=O)O)c2ccccc2C(=O)N(Cc2ccccc2)[C@H]1c1ccc(CO)cc1` .
0.756

And the next one, `Cc1ccc(S[C@]2(C(=O)NCC(C)C)CC(=O)N(Cc3ccccc3Cl)[C@@H]2c2ccc(CO)cc2I)cc1` ?
0.763

And the next one, `CCCC[C@@H]1C[C@H]1[C@@H](NC(=O)c1cccnc1)c1ccc(-c2ccccc2)cc1` ?
-0.357

And the next one, `C[n+]1ccc(CCCO)cc1` ?
0.321

And the next one, `COC(=O)Cn1c(C(=O)N2CCCC2)cc2c1C[C@H]1CN(C(=O)c3ccccc3)[C@@](Cc3ccc(F)cc3)(C(=O)OC)[C@@H]21` ?
0.885

And the next one, `O=C1O[C@@H](c2ccccc2)[C@@H](c2ccccc2)N2[C@@H](c3ccccc3OCCO)[C@]3(C(=O)Nc4ccc(C#CCCO)cc43)[C@@H](C(=O)Nc3nc4ccccc4s3)[C@H]12` ?
0.428

And the next one, CCCCN1CC=CC23O[C@@H]4/C=C\CCC(C)OC(=O)C4[C@H]2C(=O)N(CCCCCCO)[C@@H]3C1=O (stereo partly specified) ?
0.86

And the next one, `C=CCNC(=O)[C@@H]1[C@H]2C(=O)O[C@H](c3ccccc3)[C@H](c3ccccc3)N2[C@H](c2ccc(OCCO)cc2)[C@@]12C(=O)N(C(=O)OCCOC)c1ccc(C#CC3=CCCCC3)cc12` ?
0.621

And the next one, `[N-]=[N+]=Nc1ccccc1C[C@@]1(C(=O)O)N=C(c2ccc(OCCCO)cc2)O[C@@H]1c1ccccc1` ?
0.799

And the next one, COC(=O)C1(Cc2ccccc2)C=C2C(=C(C(C)C)C(=O)C2C)CN1 (stereo unspecified) ?
0.676

And the next one, `COc1ccccc1CN1C(=O)c2ccccc2[C@](Cc2ccccc2I)(C(=O)NC(C)C)[C@@H]1c1ccc(CO)cc1` ?
0.131

And the next one, `CC(C)(C)OC(=O)CC[C@]1(C(=O)NCCN2CCOCC2)N=C(c2ccc(OCCCO)cc2)O[C@H]1c1ccccc1N=[N+]=[N-]` ?
0.82

And the next one, O=C1NC(=O)C2C1C=CC(C(O)c1ccc3c(c1)OCO3)N2Nc1ccccn1 (stereo unspecified) ?
0.555

And the next one, `O=C1O[C@@H](c2ccccc2)[C@@H](c2ccccc2)N2[C@@H](c3ccccc3OCCO)[C@]3(C(=O)Nc4ccc(C#CC5=CCCCC5)cc43)[C@@H](C(=O)NC[C@H](O)c3ccccc3)[C@H]12` ?
0.211

And the next one, `COCC(=C=CC[C@H](O)c1cccc(OCCO)c1)C[C@H](O)c1ccccn1` ?
0.778

And the next one, CN1C2C=C(CCCO)C(C3C(=O)N(C(N)=O)C(=O)C32)C1c1cccs1 (stereo unspecified) ?
0.409
